# Tested on: EKVX
# assayNotes: NCI tumour cell line growth inhibition, 48 h
Calls of active or inactive are those of the source. No stated cut-off is given here; in the data, active = GI50 up to about 1.1 µM and inactive = higher.
propertyName: GI50

Enquiry: Consider the compound Cc1c(C#N)c2nnn(-c3ccccc3)c(=O)n2c1-c1ccccc1 and give its measured GI50.
Return: 2.61 µM (inactive)

Enquiry: Continue with COc1ccc(C(=O)/C=C/c2ccc(Oc3cc(C(=O)/C=C/c4ccc(O)cc4)c(O)cc3OC)cc2)c(O)c1
Return: 4.01 µM (inactive)

Enquiry: Continue with COc1ccc2c(c1)/C(=C(\C(Cl)=C(Cl)Cl)[N+](=O)[O-])N2
Return: 26.7 µM (inactive)

Enquiry: Continue with O=C(O)c1oc2ccc([N+](=O)[O-])c3c2c1CCC3
Return: > 100 µM (inactive)

Enquiry: Continue with C[C@@H]1C(O)CC[C@H](C)C12CC=CC2=O (some centres undefined)
Return: > 100 µM (inactive)

Enquiry: Continue with CCOC(=O)CCC(NC(=O)c1ccc(Nc2nc3ccccc3nc2C(=O)OCC)cc1)C(=O)OCC (centres undefined)
Return: 7.38 µM (inactive)

Enquiry: Continue with COc1ccc(-n2c(SC(CN3CCOCC3)CN3CCCC3=O)nc3ccccc3c2=O)cc1 (centres undefined)
Return: > 100 µM (inactive)

Enquiry: Continue with Cc1nn(C(=O)c2ccccc2O)c2c1C(c1ccccc1)SC(=N)N2 (centres undefined)
Return: > 10 µM (inactive)

Enquiry: Continue with O=C(/C(=C(/Br)I)c1ccccc1)c1ccccc1
Return: 29 µM (inactive)

Enquiry: Continue with c1ccc2c(c1)oc1ccc3nsnc3c12
Return: 31.3 µM (inactive)

Enquiry: Continue with COc1c2cc(C(C)(C)C)cc1Cc1cccc(c1OCc1cccc([N+](=O)[O-])c1)Cc1cc(C(C)(C)C)cc(c1OC)Cc1cccc(c1OCc1cccc([N+](=O)[O-])c1)Cc1cc(C(C)(C)C)cc(c1OC)Cc1cccc(c1OCc1cccc([N+](=O)[O-])c1)C2
Return: > 50 µM (inactive)

Enquiry: Continue with O=C(N/C(=C\c1ccc([N+](=O)[O-])cc1)c1nc2ccccc2[nH]1)c1ccccc1
Return: > 100 µM (inactive)

Enquiry: Continue with CCCCCCCC(=O)OC[C@H](C[As](=O)(O)O)OC(=O)CCCCCCC
Return: 21.1 µM (inactive)

Enquiry: Continue with Cc1cc(=O)oc2cc3oc(N(C)c4ccccc4)nc(=O)c3cc12
Return: > 100 µM (inactive)

Enquiry: Continue with COc1ccc2c3c1O[C@H]1C(=O)C=CC4(n5[nH]c(=O)n(-c6ccccc6)c5=O)C(C2)N(C)CCC314 (some centres undefined)
Return: > 100 µM (inactive)

Enquiry: Continue with O=C(NCCCNCCNC(=O)c1cc(-c2ccccc2)nc2ccccc12)c1cc(-c2ccccc2)nc2ccccc12
Return: 2.16 µM (inactive)

Enquiry: Continue with Cc1ccc(C(=O)c2[nH]c(NCc3ccccc3)c(C(=S)Nc3ccccc3)c2N)cc1
Return: 13.6 µM (inactive)

Enquiry: Continue with O=[N+]([O-])c1nccn1CC(O)CN1CC1 (centres undefined)
Return: > 100 µM (inactive)

Enquiry: Continue with COc1cc2oc(-c3ccc(O)cc3O)c(CC=C(C)C)c(=O)c2c(O)c1/C=C/C(C)C
Return: 4.2 µM (inactive)

---

# Test system: HOP-92
# assayNotes: NCI tumour cell line growth inhibition, 48 h
Activity calls are given as the source filed them. Rule as the data show it: active = GI50 up to about 1.1 µM and inactive = higher.
Exercise: state measured GI50 for each of the molecules provided.

Enquiry: Consider the molecule O=S(=O)(CCC[C@H]1[C@@H](CCOCc2ccccc2)C2CCCN1O2)c1ccccc1 (some centres undefined) and give its measured GI50.
Return: > 100 µM (inactive)

Enquiry: Continue with O=C(/C=C/c1ccc([N+](=O)[O-])cc1)N1CCN(CCOC(c2ccc(F)cc2)c2ccc(F)cc2)CC1
Return: 6.58 µM (inactive)

Enquiry: Continue with CCC/C=C/C=C/C(=O)OC1C(C)C2(O)C3C=C(C)C(=O)C3CC(COC(C)=O)=CC2C2C(C)(C)C12OC(=O)C(C)C (centres undefined)
Return: 8.81 µM (inactive)

Enquiry: Continue with COc1cc(OC)c2c(=O)cc(-c3ccccc3F)[nH]c2c1
Return: > 100 µM (inactive)

Enquiry: Continue with COc1cc2c3c(c1OC)C1(C=CC(=O)C=C1)C[C@H]3N(C)CC2
Return: > 100 µM (inactive)

Enquiry: Continue with Oc1ccc(Cl)cc1-c1cc(-c2ccccc2)nc(NCN2CCCCC2)n1
Return: > 100 µM (inactive)

Enquiry: Continue with O=c1[nH]c2cc(C(F)(F)F)ccc2nc1Cc1ccccc1
Return: 18.5 µM (inactive)

Enquiry: Continue with CCOC(=O)C1=C(C)C2C3C(=O)OC(=O)C3C1(C)C1C(=O)OC(=O)C21 (centres undefined)
Return: > 100 µM (inactive)

Enquiry: Continue with Cc1ccc(NC(=O)CCC(=O)C(C#N)c2ccccc2)cc1C (centres undefined)
Return: > 100 µM (inactive)

Where do the numbers come from? From ChEMBL document CHEMBL1201862.
